Data provenance: patent US20260070902A1

- Target Desc: human CCR6 (Homo sapiens, UniProt P51684)
- Sequence (P51684 whole entry): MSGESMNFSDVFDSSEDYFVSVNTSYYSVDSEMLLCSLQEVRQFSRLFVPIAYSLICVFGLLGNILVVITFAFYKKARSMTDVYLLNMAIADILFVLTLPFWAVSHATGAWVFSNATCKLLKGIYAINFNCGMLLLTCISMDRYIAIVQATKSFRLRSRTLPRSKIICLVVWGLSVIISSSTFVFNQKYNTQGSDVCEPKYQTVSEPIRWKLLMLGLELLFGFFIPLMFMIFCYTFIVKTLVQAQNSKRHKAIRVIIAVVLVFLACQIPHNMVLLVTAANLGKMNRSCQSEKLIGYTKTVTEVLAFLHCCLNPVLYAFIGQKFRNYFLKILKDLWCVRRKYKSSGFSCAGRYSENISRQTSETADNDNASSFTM
- Method Description: CHO-K1 CCR6 chemotaxis assay towards CCL20
- Assay type: cell-based
- Condition Set: relative -Log IC50; CHO-K1 cells overexpressing human CCR6; migration towards 100 ng/ml CCL20; 4 h
Under this convention, true denotes IC50 strictly below 0.3 µM and false denotes IC50 at or above 0.3 µM.

Molecule	Label
CC(C)c1nnc2ccc(-c3ccc(S(=O)(=O)[C@H]4CC[C@H](Nc5ccc(S(F)(F)(F)(F)F)cc5)CC4)cc3)nn12	true
CNC(=O)c1ccc(-c2ccc(S(=N)(=O)N3CCC(Nc4ccc(S(F)(F)(F)(F)F)cc4)CC3)cc2)cn1 (stereo not shown)	true
N#Cc1c[nH]c2ccc(-c3ccc(S(=N)(=O)[C@H]4CC[C@H](Nc5ccc(S(F)(F)(F)(F)F)cc5)CC4)cc3)cc12 (single isomer, unassigned; (-)) [Example 127]	true
O=S(=O)(c1ccc(-c2ccc3nnc(C4CNC4)n3c2)cc1)N1CCC(Nc2ccc(S(F)(F)(F)(F)F)cc2)CC1	true
CN(C)C(=O)c1ccc(-c2ccc(S(=O)(=O)[C@H]3CC[C@H](Nc4ccc(S(F)(F)(F)(F)F)cc4)CC3)cc2)cn1	false
NC(=O)c1cc(-c2ccc(S(=O)(=O)N3CCC(Nc4ccc(S(F)(F)(F)(F)F)cn4)CC3)cc2)ccn1	true
CC(C)c1nnc2cnc(-c3ccc(S(=O)(=O)[C@H]4CC[C@H](Nc5ccc(S(F)(F)(F)(F)F)cc5)CC4)cc3)cn12	true
O=C1NCCc2ccc(-c3ccc(S(=O)(=O)[C@H]4CC[C@H](Nc5ccc(S(F)(F)(F)(F)F)cc5)CC4)cc3)cc21	true
Cc1nnc2ccc(-c3ccc(S(=O)(=O)N4CCC(Nc5ccc(S(F)(F)(F)(F)F)cn5)CC4)cc3)cn12	true
O=S(=O)(c1ccc(-c2cc(F)c3nccn3c2)cc1)[C@H]1CC[C@H](Nc2ccc(S(F)(F)(F)(F)F)cc2)CC1	true
CNC(=O)c1cc(-c2ccc(S(=O)(=O)[C@H]3CC[C@H](Nc4ccc(S(F)(F)(F)(F)F)cc4)CC3)cc2)ccn1	true
N=S(=O)(c1ccc(-c2ccc3nccn3c2)cc1)[C@H]1CC[C@H](Nc2ccc(S(F)(F)(F)(F)F)cc2)CC1 (single isomer, unassigned; (+)) [Example 128]	true
Cc1cnc2ccc(-c3ccc(S(=O)(=O)N4CCC(Nc5ccc(S(F)(F)(F)(F)F)cc5)CC4)cn3)cn12	false

----------
The following compounds are shown together with reported log10 IC50 values.
- Target Desc: human CCR6 (Homo sapiens)
- Method Description: Human CCR6-CRE reporter assay
- Format: cell-based
- Design: The second construct contained the open reading frame of human CCR6 in the pUNO1 backbone; host or cells: 293FT cells
- Condition Set: relative -Log IC50; 293FT cells transfected with human CCR6 and CRE-luciferase reporter; 6 μM Forskolin, 6 nM CCL20; 5 h
Endpoint Name: log10 IC50 (log10 of the value in nM)

>>> df
                                    compound                target_desc   val
 0  O=S(=O)(c1ccc(-c2cc(C(F)(F)F)c3nccn3c2)cc1)[C@H]1CC[C@H](Nc2ccc(S(F)(F)(F)(F)F)cc2)CC1  human CCR6 (Homo sapiens)  1.80
 1  N=S(=O)(c1ccc(-c2ccn3ncnc3c2)cc1)[C@H]1CC[C@H](Nc2ccc(S(F)(F)(F)(F)F)cc2)CC1 (stereo partly shown)  human CCR6 (Homo sapiens)  2.70
 2  CN(C)C(=O)c1ccc(-c2ccc(S(=O)(=O)[C@H]3CC[C@@H](Nc4ccc(S(F)(F)(F)(F)F)cc4)CC3)cc2)nc1  human CCR6 (Homo sapiens)  3.20
 3  Cc1nnc2ccc(-c3ccc(S(=N)(=O)[C@H]4CC[C@H](Nc5ccc(S(F)(F)(F)(F)F)cc5)CC4)cc3)cn12 (stereo partly shown)  human CCR6 (Homo sapiens)  2.60
 4  O=C1NCc2cc(-c3ccc(S(=O)(=O)[C@H]4CC[C@H](Nc5ccc(S(F)(F)(F)(F)F)cc5)CC4)cc3)ccc21  human CCR6 (Homo sapiens)  2.30
 5  O=S(=O)(c1ccc(-c2cn3ccnc3cn2)cc1)N1CCC(Nc2ccc(S(F)(F)(F)(F)F)cc2)CC1  human CCR6 (Homo sapiens)  2.30
 6  N=S(=O)(c1ccc(-c2ccc3nnc(C(F)F)n3c2)cc1)[C@H]1CC[C@H](Nc2ccc(S(F)(F)(F)(F)F)cc2)CC1 (stereo partly shown)  human CCR6 (Homo sapiens)  2.50
 7  NC(=O)c1cc(-c2ccc(S(=O)(=O)N3CC[C@H](Nc4ccc(S(F)(F)(F)(F)F)cc4)[C@@H](F)C3)cc2)ccn1 (stereo in doubt)  human CCR6 (Homo sapiens)  2.50
 8  CNC(=O)c1ccc(-c2ccc(S(=O)(=O)N3CCC(Nc4ccc(S(F)(F)(F)(F)F)cc4)CC3)cc2)cc1F  human CCR6 (Homo sapiens)  1.80
 9  CNC(=O)c1cc(-c2ccc(S(=O)(=O)N3CCC(Nc4ccc(S(F)(F)(F)(F)F)cc4)CC3)cc2)ccc1F  human CCR6 (Homo sapiens)  1.80
10  N=S(=O)(c1ccc(-c2ccc(C(N)=O)nc2)cc1)[C@H]1CC[C@H](Nc2ccc(S(F)(F)(F)(F)F)cc2)CC1 (stereo partly shown)  human CCR6 (Homo sapiens)  2.70
11  O=S(=O)(c1ccc(N2CCC3(CC2)COC3)cc1)N1CCC(Nc2ccc(S(F)(F)(F)(F)F)cc2)CC1  human CCR6 (Homo sapiens)  2.10
12  N#Cc1cnc2ccc(-c3ccc(S(=O)(=O)N4CCC(Nc5ccc(S(F)(F)(F)(F)F)cc5)CC4)cc3)cn12  human CCR6 (Homo sapiens)  1.60

----------
- Target Desc: human CCR6 (Homo sapiens)
- Method Description: Human CCR6-CRE reporter assay
- Type: cell-based
- Design: The second construct contained the open reading frame of human CCR6 in the pUNO1 backbone; host or cells: 293FT cells
- Condition Set: relative -Log IC50; 293FT cells transfected with human CCR6 and CRE-luciferase reporter; 6 μM Forskolin, 6 nM CCL20; 5 h
Entries annotated with measured IC50
Endpoint Name: IC50 (nM)

>>> df
                                   compound  units_symbol   val
0  N#Cc1c[nH]c2ccc(-c3ccc(S(=N)(=O)N4CCC(Nc5ccc(S(F)(F)(F)(F)F)cc5)CC4)cc3)cc12 (stereo not drawn) [Example 120]            nM  63.1
1  N=S(=O)(c1ccc(-c2ccc3c(c2)CNC3=O)cc1)[C@H]1CC[C@H](Nc2ccc(S(F)(F)(F)(F)F)cc2)CC1 (stereo partly drawn) [Example 112]            nM   398
2  O=C1NCCc2sc(-c3ccc(S(=O)(=O)[C@H]4CC[C@H](Nc5ccc(S(F)(F)(F)(F)F)cc5)CC4)cc3)cc21 [Example 153]            nM   158
3  N=S(=O)(c1ccc(-c2ccc(C(N)=O)cc2)cc1)[C@H]1CC[C@H](Nc2ccc(S(F)(F)(F)(F)F)cc2)CC1 (stereo partly drawn) [Example 96]            nM   158
4  Cc1nnc2ccc(-c3ccc(S(=O)(=O)[C@H]4CC[C@H](Nc5ccc(S(F)(F)(F)(F)F)cc5)CC4)cc3)cn12 [Example 11]            nM   100
5  N=S(=O)(c1ccc(-c2ccc3c(c2)C(=O)NC3)cc1)[C@H]1CC[C@H](Nc2ccc(S(F)(F)(F)(F)F)cc2)CC1 (stereo partly drawn) [Example 115]            nM   398

----------
- Target Desc: human CCR6 (Homo sapiens, UniProt P51684)
- Method Description: Human CCR6-CRE reporter assay
- Type: cell-based
- Set-up: The second construct contained the open reading frame of human CCR6 in the pUNO1 backbone; host or cells: 293FT cells
- Condition Set: relative -Log IC50; 293FT cells transfected with human CCR6 and CRE-luciferase reporter; 6 μM Forskolin, 6 nM CCL20; 5 h
Endpoint Name: IC50 (nM)

Compound	Endpoint Name	Val
N=S(=O)(c1ccc(-c2ccc3nccn3c2)cc1)N1CCC(Nc2ccc(S(F)(F)(F)(F)F)cc2)CC1 (stereo not drawn)	IC50	200
N#Cc1cnc2ccc(-c3ccc(S(=O)(=O)N4CCC(Nc5ccc(S(F)(F)(F)(F)F)cc5)CC4)c(F)c3)cn12	IC50	501
N=S(=O)(c1ccc(-c2ccc3nccn3c2)cc1)[C@H]1CC[C@H](Nc2ccc(S(F)(F)(F)(F)F)cc2)CC1 (single isomer, unassigned; (+)) [Example 128]	IC50	126
O=C1Cc2ccc(-c3ccc(S(=O)(=O)[C@H]4CC[C@H](Nc5ccc(S(F)(F)(F)(F)F)cc5)CC4)cc3)cc2N1	IC50	158
Cc1cnc2ccc(-c3ccc(S(=O)(=O)N4CCC(Nc5ccc(S(F)(F)(F)(F)F)cc5)CC4)c(F)c3)cn12	IC50	631
CC(C)c1nnc2cnc(-c3ccc(S(=O)(=O)N4CCC(Nc5ccc(S(F)(F)(F)(F)F)cc5)CC4)cc3)cn12	IC50	63.1
